Taken from ChEMBL document CHEMBL3808364.

measurement protocol: Ratio of drug level in brain to plasma in Sprague-Dawley rat at 0.6 mg/kg via oral gavage
Assay type: ADME, organism-based
measurement parameters: read-out: BPR
property label: Kp

Which Kp is listed for O=C(Nc1cccnc1)N1CCN(Cc2cccc(Oc3ccc(Cl)cc3)c2)CC1 ?
2.62

###

measurement protocol: Ratio of drug level in brain to plasma in Sprague-Dawley rat at 10 mg/kg via oral gavage
Format: ADME, organism-based
measurement parameters: read-out: BPR
property label: Kp

What value of Kp has been reported for the following molecule? O=C(Nc1ccccc1)N1CCN(Cc2cccc(Oc3ccc(Cl)cc3)c2)CC1
3.64

###

measurement protocol: Volume of distribution at Steady state in Sprague-Dawley rat
Type: ADME, organism-based
measurement parameters: in vivo, read-out: Vdss
For each entry below, report its Vd value.
Express the result in L/kg but write the number alone.

Look up Vd for this compound: O=C(Nc1cnccn1)N1CCN(Cc2cccc(Oc3ccc(Cl)cc3)c2)CC1
4.11

Look at this compound and give its reported Vd. O=C(Nc1cccnc1)N1CCN(Cc2cccc(Oc3ccc(F)cc3)c2)CC1
4

Find the recorded Vd belonging to O=C(Nc1ccon1)N1CCN(Cc2cccc(Oc3ccc(Cl)cc3)c2)CC1 and report it.
2.6

Would you mind telling me what Vd value was observed for O=C(Nc1nnn[nH]1)N1CCN(Cc2cccc(Oc3ccc(Cl)cc3)c2)CC1 ?
1.1

Recorded Vd of O=C(Nc1cnc2ccccn12)N1CCN(Cc2cccc(Oc3ccc(Cl)cc3)c2)CC1 , please.
10.7

Param item = O=C(Nc1cccnc1)N1CCN(Cc2cccc(Oc3ccc(Cl)cc3)c2)CC1 ; retrieve measured Vd.
3.2

Could you share which Vd value was measured for O=C(Nc1cccnc1)N1CCN(Cc2cccc(Oc3ccc(Br)cc3)c2)CC1 ?
2.8

So what's the measured Vd for this one? O=C(Nc1cnccc1Cl)N1CCN(Cc2cccc(Oc3ccc(Cl)cc3)c2)CC1
3.33

What value of Vd has been recorded for this entry: O=C(Nc1cc[nH]n1)N1CCN(Cc2cccc(Oc3ccc(Cl)cc3)c2)CC1
2

Vd lookup needed for O=C(Nc1noc2ccccc12)N1CCN(Cc2cccc(Oc3ccc(Cl)cc3)c2)CC1 , thanks.
2.48
